Please go through the items and note down their Ki.
Biological target: α4β2 subtype of nicotinic acetylcholine receptors (Rattus norvegicus, UniProt P09483+P12390)
Construct: examined using rat brain membrane obtained from whole homogenized brain; from tissue; host or cells: whole brain of Fischer-344 male rats, membrane pellet
Sequence (P09483 31-630): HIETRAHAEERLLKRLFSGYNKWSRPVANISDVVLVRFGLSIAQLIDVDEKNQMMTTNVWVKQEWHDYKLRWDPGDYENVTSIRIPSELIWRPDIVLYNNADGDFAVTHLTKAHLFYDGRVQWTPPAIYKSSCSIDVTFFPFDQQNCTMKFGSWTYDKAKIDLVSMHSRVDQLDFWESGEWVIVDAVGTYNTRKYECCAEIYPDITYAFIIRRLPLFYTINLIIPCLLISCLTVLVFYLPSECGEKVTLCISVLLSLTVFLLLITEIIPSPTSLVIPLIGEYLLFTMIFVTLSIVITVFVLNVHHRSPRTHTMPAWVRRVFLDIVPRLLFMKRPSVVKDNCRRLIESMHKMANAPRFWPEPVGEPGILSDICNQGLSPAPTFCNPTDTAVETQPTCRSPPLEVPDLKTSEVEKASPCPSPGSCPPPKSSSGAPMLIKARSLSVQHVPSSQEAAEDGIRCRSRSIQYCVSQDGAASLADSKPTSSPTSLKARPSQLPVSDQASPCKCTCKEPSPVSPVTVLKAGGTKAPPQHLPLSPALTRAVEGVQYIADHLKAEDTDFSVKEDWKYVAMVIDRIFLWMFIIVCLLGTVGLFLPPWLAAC
Sequence (P12390 25-500): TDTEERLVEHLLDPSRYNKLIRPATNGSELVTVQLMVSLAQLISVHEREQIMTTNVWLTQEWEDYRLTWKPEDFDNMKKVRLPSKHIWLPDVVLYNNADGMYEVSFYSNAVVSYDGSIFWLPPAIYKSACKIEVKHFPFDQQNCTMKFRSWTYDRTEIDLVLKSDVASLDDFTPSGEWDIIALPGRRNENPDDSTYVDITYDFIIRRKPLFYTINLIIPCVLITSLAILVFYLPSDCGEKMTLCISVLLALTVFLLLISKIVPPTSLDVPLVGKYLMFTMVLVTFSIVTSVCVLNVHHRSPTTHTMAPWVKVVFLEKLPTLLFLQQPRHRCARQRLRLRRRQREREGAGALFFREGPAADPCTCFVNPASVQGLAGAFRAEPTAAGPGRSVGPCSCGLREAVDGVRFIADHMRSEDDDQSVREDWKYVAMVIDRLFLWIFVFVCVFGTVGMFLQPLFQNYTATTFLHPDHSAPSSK
Assay: Binding assays at α4β2 subtype of nicotinic acetylcholine receptors ([3H]-cytisine, rat brain membrane)
Conditions: rat brain membrane, [3H]-cytisine (2 nM); read-out: Affinities for receptors Ki α4β2
Description: Methods for evaluating binding capabilities of the compounds at nicotinic acetylcholine receptors are different by subtypes of receptors. […] Suspensions of membrane pellets containing 400-600 μg of protein were added to test tubes containing test compounds and [^3H]-cytisine (2 nM) in a final volume of 200 μl and incubated for 75 minutes in ice-cooled bath. […] The filters were counted in 3 ml of clearsol I (Nacalai Tesque Inc.). […]
Give bare numbers, in nM.

N=C1SCCN1Cc1ccc(Cl)nc1 :: 2.2
N=C1SCCCN1Cc1ccc(Cl)nc1 :: 520
Cc1ccc(Cn2ccsc2=N)cc1 :: 160

Could I get Ki for every one of these entries?
1. N=c1ccccn1Cc1ccc(Cl)nc1
2. N=c1sccn1Cc1ccc(Cl)nc1
3. N=C1NCCN1Cc1ccc(Cl)nc1

3.1
0.5
4.6

----------
biological target: α4β2 subtype of nicotinic acetylcholine receptors (Rattus norvegicus, UniProt P09483+P12390); construct: examined using rat brain membrane obtained from whole homogenized brain; from tissue; host or cells: whole brain of Fischer-344 male rats, membrane pellet; experiment: Binding assays at α4β2 subtype of nicotinic acetylcholine receptors ([3H]-cytisine, rat brain membrane); details: at 1 μM of test compound; rat brain membrane
observable: control % of [3H]-cytisine binding

Nc1nccn1Cc1ccc(Cl)cc1 :: (62%,
N=c1sccn1Cc1cccc(C(F)(F)F)c1 :: (60%,
N=C1SCCN1Cc1cccnn1 :: (62%,
Cc1nc(N)n(Cc2ccc(Cl)nc2)c1C :: (96%

----------
Please go through the items and note down their control % of [3H]-cytisine binding.
molecular target: α4β2 subtype of nicotinic acetylcholine receptors (Rattus norvegicus, UniProt P09483+P12390); construct: examined using rat brain membrane obtained from whole homogenized brain; from tissue; host or cells: whole brain of Fischer-344 male rats, membrane pellet; experiment: Binding assays at α4β2 subtype of nicotinic acetylcholine receptors ([3H]-cytisine, rat brain membrane); conditions: at 10 μM of test compound; rat brain membrane
Give bare numbers, in %).

These recorded examples may help you get a feel for the data.
N=C1SCCN1Cc1cccnn1 [Compound 49] :: 16
Cc1nc(N)n(Cc2ccc(Cl)nc2)c1C [Compound 51] :: 33

Could I get control % of [3H]-cytisine binding for every one of these entries?
1. N=c1sccn1Cc1cccc(C(F)(F)F)c1 [Compound 64]
2. Nc1nccn1Cc1ccc(Cl)cc1 [Compound 58, 2-amino-i-(4-chlorobenzyl)imidazole]

15
16

----------
Please go through the items and note down their pEC50.
target: human α4β2 subtype of nicotinic acetylcholine receptors (Homo sapiens, UniProt P17787+P43681); construct: expressed in transfected cells; host or cells: Xenopus laevis oocytes injected with 50 ng each of α4 and β2 cRNA (pSP64 polyA vector); experiment: Agonist activities at human α4β2 subtype of nicotinic acetylcholine receptors expressed in Xenopus oocytes (membrane potential holding method); assay type: cell-based
Sequence (P43681 29-627 limits assumed): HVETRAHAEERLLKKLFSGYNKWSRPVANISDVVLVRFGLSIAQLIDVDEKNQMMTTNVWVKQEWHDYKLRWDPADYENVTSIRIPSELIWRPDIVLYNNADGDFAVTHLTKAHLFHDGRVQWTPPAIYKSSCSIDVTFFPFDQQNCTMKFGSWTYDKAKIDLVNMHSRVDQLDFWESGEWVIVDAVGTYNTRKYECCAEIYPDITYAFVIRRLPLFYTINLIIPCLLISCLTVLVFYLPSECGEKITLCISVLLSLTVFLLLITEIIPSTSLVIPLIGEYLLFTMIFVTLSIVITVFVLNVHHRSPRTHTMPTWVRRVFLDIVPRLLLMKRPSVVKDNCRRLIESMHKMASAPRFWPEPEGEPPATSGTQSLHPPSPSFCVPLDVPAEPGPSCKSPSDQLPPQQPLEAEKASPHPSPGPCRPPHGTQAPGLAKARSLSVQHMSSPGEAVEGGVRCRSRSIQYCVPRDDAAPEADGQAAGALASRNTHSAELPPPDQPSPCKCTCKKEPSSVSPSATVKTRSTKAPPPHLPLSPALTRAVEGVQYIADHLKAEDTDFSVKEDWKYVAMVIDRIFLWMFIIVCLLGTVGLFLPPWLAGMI
Sequence (P17787 26-502): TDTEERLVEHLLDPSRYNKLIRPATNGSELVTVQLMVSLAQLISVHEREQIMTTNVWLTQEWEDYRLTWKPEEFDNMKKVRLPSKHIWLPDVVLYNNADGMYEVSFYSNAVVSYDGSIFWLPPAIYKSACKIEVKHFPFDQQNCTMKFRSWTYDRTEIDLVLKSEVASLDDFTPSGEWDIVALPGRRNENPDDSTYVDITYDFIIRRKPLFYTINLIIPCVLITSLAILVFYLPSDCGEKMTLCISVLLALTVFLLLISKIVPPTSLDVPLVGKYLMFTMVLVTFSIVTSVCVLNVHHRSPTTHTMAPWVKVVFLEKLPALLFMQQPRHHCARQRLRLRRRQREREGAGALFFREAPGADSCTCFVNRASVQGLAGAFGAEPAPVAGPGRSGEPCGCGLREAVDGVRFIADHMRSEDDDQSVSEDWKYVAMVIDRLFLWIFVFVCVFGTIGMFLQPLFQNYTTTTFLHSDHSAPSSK
Give bare numbers, as −log10 of the molar value.

These recorded examples may help you get a feel for the data.
N=C1OCCCN1Cc1ccc(Cl)nc1 :: 5.82
N=C1CCCN1Cc1ccc(Cl)nc1 :: 4.57
N=C1OCCN1Cc1ccc(Cl)nc1 :: 4.81
N=c1ccc(Cl)nn1Cc1ccc(Cl)nc1 :: 4.07
N=c1sccn1Cc1ccc([N+](=O)[O-])cc1 :: 3.49
Nc1nccn1Cc1cnc(Cl)s1 :: 4.03

Moving on to the next molecule.
Recorded pEC50 for NC1=NCCCN1Cc1ccc(Cl)nc1 , please?
6.30

----------
biological target: α4β2 subtype of nicotinic acetylcholine receptors (Rattus norvegicus, UniProt P09483+P12390); construct: examined using rat brain membrane obtained from whole homogenized brain; from tissue; host or cells: whole brain of Fischer-344 male rats, membrane pellet; assay: Binding assays at α4β2 subtype of nicotinic acetylcholine receptors ([3H]-cytisine, rat brain membrane); settings: rat brain membrane, [3H]-cytisine (2 nM); read-out: Affinities for receptors Ki α4β2
Please go through the items and note down their pKi.
Give bare numbers, as −log10 of the molar value.

Could I get pKi for every one of these entries?
1. Nc1nccn1Cc1cccnc1
2. N=C1CCCCN1Cc1ccc(Cl)nc1
3. N=C1CCCN1Cc1ccc(Cl)nc1
4. Nc1nccn1Cc1ccc(Cl)nc1

1. 7.37
2. 8.32
3. 8.72
4. 7.65

----------
target: α4β2 subtype of nicotinic acetylcholine receptors (Rattus norvegicus, UniProt P09483+P12390); construct: examined using rat brain membrane obtained from whole homogenized brain; from tissue; host or cells: whole brain of Fischer-344 male rats, membrane pellet; assay: Binding assays at α4β2 subtype of nicotinic acetylcholine receptors ([3H]-cytisine, rat brain membrane)
observable: pKi
Answers are plain numbers, as −log10 of the molar value.

These recorded examples may help you get a feel for the data.
Cc1ccn(Cc2ccc(Cl)nc2)c(=N)c1 :: 6.77
Cc1cccn(Cc2ccc(Cl)nc2)c1=N :: 6.66
NC1=NCCCN1Cc1ccc(Cl)nc1 :: 9.60
CC1CSC(=N)N1Cc1ccc(Cl)nc1 (centres unmarked) :: 7.27
N=C1SCCN1Cc1cccnc1 :: 8.12

Could I get pKi for every one of these entries?
1. N=C1OCCN1Cc1ccc(Cl)nc1
2. N=c1sc(-c2ccccc2)cn1Cc1ccc(Cl)nc1
3. Cc1csc(=N)n1Cc1cncc(Br)c1
4. Cc1cc(CN2CCSC2=N)on1
5. Cc1cc(Cn2c(C)csc2=N)on1
6. N=c1sccn1Cc1ccc(F)nc1
7. N=c1ncccn1Cc1ccc(Cl)nc1
8. N=c1scc(-c2ccccc2)n1Cc1ccc(Cl)nc1

[8.56, 6.45, 7.57, 7.39, 6.58, 8.72, 8.06, 7.49]

Could I get pKi for every one of these entries?
1. N=c1ccc(-c2ccccc2)nn1Cc1ccc(Cl)nc1
2. Cc1ccc(Cn2c(C)csc2=N)cn1
3. Cc1sc(=N)n(Cc2ccc(Cl)nc2)c1C
4. CCc1csc(=N)n1Cc1ccc(Cl)nc1
5. N=c1sccn1Cc1ccc(Br)nc1
6. Nc1nccn1Cc1c[nH]c2ncccc12

1. 7.19
2. 7.52
3. 8.12
4. 7.66
5. 9.20
6. 7.30

Could I get pKi for every one of these entries?
1. N=c1sccn1Cc1cccnc1
2. Cc1cn(Cc2ccc(Cl)nc2)c(=N)s1
3. Nc1nccn1Cc1cnc(Cl)c(Cl)c1
4. Cc1csc(=N)n1Cc1cnc(Cl)c(Cl)c1
5. N=c1sccn1Cc1c[nH]c2ncccc12
6. N=c1sccn1Cc1ccc(Cl)cc1
7. N=C1OCCCN1Cc1ccc(Cl)nc1

8.32
8.24
8.01
7.97
7.79
7.92
9.19

Could I get pKi for every one of these entries?
1. Nc1nccn1Cc1cnc(Cl)s1
2. N=c1ccc(-c2ccccc2)nn1Cc1cccnc1
3. Cc1cn(Cc2ccc(Cl)nc2)c(N)n1
4. N=c1scc(-c2ccc(Cl)cc2)n1Cc1ccc(Cl)nc1
5. N=c1ccc(Cl)nn1Cc1ccc(Cl)nc1
6. N=C1SCCN1Cc1ccnnc1

7.57
6.84
6.65
6.54
7.82
7.49

Could I get pKi for every one of these entries?
1. Nc1nccn1Cc1cncnc1
2. N=c1ccc([N+](=O)[O-])cn1Cc1ccc(Cl)nc1
3. N=c1ccccn1Cc1cccnc1
4. N=c1sccn1Cc1ccc(Cl)c(Cl)c1
5. Cc1csc(=N)n1Cc1cnc(Cl)s1
6. N=c1ccc(Cl)cn1Cc1ccc(Cl)nc1

7.60
6.64
7.55
7.50
7.79
7.47

Could I get pKi for every one of these entries?
1. N=c1ncc(-c2ccccc2)cn1Cc1ccc(Cl)nc1
2. N#Cc1ccc(Cn2ccsc2=N)cc1
3. Cc1csc(=N)n1Cc1ccc(Br)nc1

6.56
6.74
7.98

----------
Please go through the items and note down their remaining activity at 1000 µM.
molecular target: α1β1γδ subtype of nicotinic acetylcholine receptors (Rattus norvegicus, UniProt P18916+P25108+P25109+P25110); construct: Native receptor, no construct: "Triton X100 (2% w/v) was added; assay: Binding assays at α1β1γδ subtype of nicotinic acetylcholine receptors ([3H]-α-bungarotoxin, rat muscle extract); details: read-out: control % of [3H]-α-Bgt binding
Sequence (P25108 21-457): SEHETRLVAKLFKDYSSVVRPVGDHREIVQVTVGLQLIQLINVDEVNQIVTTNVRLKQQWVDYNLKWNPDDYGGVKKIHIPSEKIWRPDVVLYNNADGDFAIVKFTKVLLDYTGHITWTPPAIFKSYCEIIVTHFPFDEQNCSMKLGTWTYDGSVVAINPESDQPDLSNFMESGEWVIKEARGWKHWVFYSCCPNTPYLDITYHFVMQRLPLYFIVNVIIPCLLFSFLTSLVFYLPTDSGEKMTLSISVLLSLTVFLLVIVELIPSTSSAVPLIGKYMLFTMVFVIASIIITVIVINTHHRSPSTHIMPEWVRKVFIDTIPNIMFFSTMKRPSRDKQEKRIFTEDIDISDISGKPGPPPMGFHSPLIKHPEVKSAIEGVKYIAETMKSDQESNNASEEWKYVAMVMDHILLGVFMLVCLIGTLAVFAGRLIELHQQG
Sequence (P25110 22-517): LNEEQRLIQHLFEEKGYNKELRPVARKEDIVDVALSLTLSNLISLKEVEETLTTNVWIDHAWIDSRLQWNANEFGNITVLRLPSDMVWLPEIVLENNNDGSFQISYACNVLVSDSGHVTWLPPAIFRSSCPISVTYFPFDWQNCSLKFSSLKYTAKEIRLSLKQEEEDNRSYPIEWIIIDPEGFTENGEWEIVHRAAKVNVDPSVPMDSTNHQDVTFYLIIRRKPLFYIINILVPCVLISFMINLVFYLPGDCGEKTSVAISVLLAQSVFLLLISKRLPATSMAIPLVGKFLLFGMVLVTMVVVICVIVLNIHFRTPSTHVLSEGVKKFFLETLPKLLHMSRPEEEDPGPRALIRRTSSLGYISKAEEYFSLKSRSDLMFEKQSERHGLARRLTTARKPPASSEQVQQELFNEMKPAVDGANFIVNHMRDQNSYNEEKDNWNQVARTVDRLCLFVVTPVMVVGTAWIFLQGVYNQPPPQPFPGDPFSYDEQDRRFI
Sequence (P25109 24-501): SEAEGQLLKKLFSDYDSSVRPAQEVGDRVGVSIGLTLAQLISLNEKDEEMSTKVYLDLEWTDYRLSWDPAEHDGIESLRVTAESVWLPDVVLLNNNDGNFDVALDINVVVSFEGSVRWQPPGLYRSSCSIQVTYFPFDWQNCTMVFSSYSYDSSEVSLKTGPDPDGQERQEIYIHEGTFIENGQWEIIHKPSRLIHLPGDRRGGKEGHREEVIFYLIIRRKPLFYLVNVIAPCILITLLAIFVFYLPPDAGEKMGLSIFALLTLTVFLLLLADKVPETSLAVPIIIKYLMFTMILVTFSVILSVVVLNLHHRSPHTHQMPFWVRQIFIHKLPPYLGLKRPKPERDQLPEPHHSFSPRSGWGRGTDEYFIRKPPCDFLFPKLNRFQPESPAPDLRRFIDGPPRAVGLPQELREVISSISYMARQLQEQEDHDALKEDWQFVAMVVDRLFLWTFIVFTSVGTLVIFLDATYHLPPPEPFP
Give bare numbers, in %.

These recorded examples may help you get a feel for the data.
Cc1nc(N)n(Cc2ccc(Cl)nc2)c1C :: 53
N=C1SCCCN1Cc1ccc(Cl)nc1 :: 23
Cc1cn(Cc2ccc(Cl)nc2)c(N)n1 :: 56
N=C1NCCN1Cc1ccc(Cl)nc1 :: 8
N=c1scc(-c2ccc(Cl)cc2)n1Cc1ccc(Cl)nc1 :: 35

Could I get remaining activity at 1000 µM for every one of these entries?
1. N=c1scc(-c2ccccc2)n1Cc1ccc(Cl)nc1
2. N=c1sccn1Cc1ccc(F)nc1
3. N=c1ccc(-c2ccccc2)nn1Cc1ccc(Cl)nc1
4. N=c1ccc(Cl)cn1Cc1ccc(Cl)nc1
5. N=C1OCCCN1Cc1ccc(Cl)nc1
6. N=c1ccc(-c2ccccc2)nn1Cc1cccnc1

30
-2
26
28
-2
6

Could I get remaining activity at 1000 µM for every one of these entries?
1. CCc1csc(=N)n1Cc1ccc(Cl)nc1
2. Cc1cc(Cn2c(C)csc2=N)on1

1. 19
2. 2

Where do these numbers come from? They come from patent US20020028809A1.
